- system tested: FLuc-C-HiBiT (firefly luciferase) (Photinus pyralis, UniProt P08659, form not given/L550V)
- Sequence (P08659 2-550 L550V, form open): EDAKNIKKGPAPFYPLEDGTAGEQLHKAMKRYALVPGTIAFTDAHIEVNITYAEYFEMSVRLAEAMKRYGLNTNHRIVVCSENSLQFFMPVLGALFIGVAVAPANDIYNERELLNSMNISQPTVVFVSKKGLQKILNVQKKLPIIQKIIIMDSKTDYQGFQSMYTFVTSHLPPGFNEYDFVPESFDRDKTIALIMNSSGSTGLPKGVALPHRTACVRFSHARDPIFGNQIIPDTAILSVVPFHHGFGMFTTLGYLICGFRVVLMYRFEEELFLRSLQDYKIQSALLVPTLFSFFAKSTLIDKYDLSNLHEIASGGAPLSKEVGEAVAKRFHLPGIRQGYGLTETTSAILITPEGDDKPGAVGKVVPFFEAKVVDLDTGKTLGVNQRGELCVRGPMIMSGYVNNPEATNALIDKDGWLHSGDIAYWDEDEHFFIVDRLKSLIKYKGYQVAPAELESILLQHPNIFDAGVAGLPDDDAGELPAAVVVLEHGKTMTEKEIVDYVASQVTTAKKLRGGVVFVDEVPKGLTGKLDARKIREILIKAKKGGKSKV
- assay details: SDR assay, FLuc-C-HiBiT
- stated conditions: + ATP; SDR max. response; clade S
observation type: % Activity (max response, + ATP) (%)
Please state the figure in %; there is no need to write the unit.

So what's the measured % Activity (max response, + ATP) for this one? O=C(NCCc1cccs1)C1CCN(C(=O)c2ncn3c2COC(c2ccccc2)C3)CC1 (stereo not shown)
316.37

Look up % Activity (max response, + ATP): O=C(NC1CCCCCCC1)C1CCN(C(=O)c2ncn3c2COC(c2ccccc2)C3)CC1 (stereo not shown)
338.48

For the molecule Cc1ccc(NC(=O)C2CCN(C(=O)c3ncn4c3COC(c3ccccc3)C4)CC2)cc1 (stereo not shown) , what % Activity (max response, + ATP) is on record?
343.11

What does the record list as % Activity (max response, + ATP) for CC(NC(=O)C1CCN(C(=O)c2ncn3c2COC(c2ccc(F)cc2)C3)CC1)c1ccc(F)cc1 (stereo not shown) ?
0.00
